molecular target: human alpha-synuclein (human, UniProt P37840 1-140); assay: SPR Biacore 3000, synuclein ligand format
PROPERTY NAME: KD improvement
Provide a numeric answer, followed by its unit.

Worked examples follow.
2E6-HLD-1 (antibody, V domains shown, Humanized 2E6 tested as IgG; also called Humanized HLD-1) VH: QVQLVQSGAEVKKPGASVKVSCKASGYTFTSYWMHWMRQAPGQGLEWIGRIDPNSGTTKYNVNFKTRATLTVDKSTSTAYMELSSLRSEDTAVYYCARLGHYGNLYAMDYWGQGTLVT VL: EIVLTQSPATLSLSPGERATLSCSASSSVSYMHWYQQKPGQAPRRWIYDTSKLASGVPARFSGSGSGTDYTLTISSLEPEDFAVYYCQQWSSNPPTFGQGTKLEIKR	2 fold
2E6 HLD 3 (antibody, V domains shown) VH: QVQLVQSGAEVKKPGASVKVSCKASGYTFTSYWMHWMRQAPGQGLEWIGRIDPNSGTTKYNVNFKTRVTLTVDKSTSTAYMELSSLRSEDTAVYYCARLGHYGNLYAMDYWGQGTLVT VL: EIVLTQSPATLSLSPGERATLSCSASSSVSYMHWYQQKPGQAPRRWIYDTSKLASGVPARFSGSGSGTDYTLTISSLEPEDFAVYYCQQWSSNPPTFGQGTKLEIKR	1 fold
2E6-HLD-2 (antibody, V domains shown, Humanized 2E6) VH: QVQLVQSGAEVKKPGASVKVSCKASGYTFTSYWMHWVRQAPGQGLEWIGRIDPNSGTTKYNVNFKTRATLTVDKSTSTAYMELSSLRSEDTAVYYCARLGHYGNLYAMDYWGQGTLVT VL: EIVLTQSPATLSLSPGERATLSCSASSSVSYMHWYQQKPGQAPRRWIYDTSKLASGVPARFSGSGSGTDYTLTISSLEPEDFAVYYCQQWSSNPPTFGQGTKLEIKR	1 fold

Now let's try a different one.
Query: Data request, read-out KD improvement, for ch2E6 (antibody, V domains shown, also called chimeric 2E6) VH: QVQLQQPGAELVKPGASVKLSCTASGYTFTSYWMHWMKQRPGRGLEWIGRIDPNSGTTKYNVNFKTKATLTVDKPSSTAYMHLSSLTSEDSAVYYCARLGHYGNLYAMDYWGQGTSVT VL: QIVLTQSPAIMSASPGEKVTMTCSASSSVSYMHWYQQKSGTSPKRWIYDTSKLASGVPTRFSGSGSGTSYSLTISSMDTEDAATYYCQQWSSNPPTFGAGTKLELK
Response: 1 fold
